target: Avi-KRAS G12D (1-169) GppNHp/RAF1 RBD-3×FLAG (52-151) (Homo sapiens, UniProt P01116, G12D); construct: Avi-KRAS G12D (1-169) GppNHp; assay: HTRF Raf1-KRAS G12D-GppNHp disruption assay; details: 1 h incubation
Sequence (P01116 1-169 isoform P01116-2 G12D limits assumed): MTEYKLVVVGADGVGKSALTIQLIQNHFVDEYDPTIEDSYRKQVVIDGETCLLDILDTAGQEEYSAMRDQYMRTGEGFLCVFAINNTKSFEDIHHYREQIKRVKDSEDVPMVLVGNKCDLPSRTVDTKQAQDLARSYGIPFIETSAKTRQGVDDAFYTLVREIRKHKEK
pIC50: −log10 of the molar value.
Listed compounds paired with reported pIC50

Solved cases below.
smiles text	obs value
Fc1c(-c2ccc(F)c3sc(C(F)F)nc23)c(C(F)(F)F)cc2c(N3CC4CCC(C3)N4)nc(OC[C@@]34CCCN3C[C@H](F)C4)nc12	4.52 to 5.00
C[C@@H]1CN(c2nc(OC[C@@]34CCCN3C[C@@H](F)C4)nc3c(F)c(-c4ccc(F)c5sc(N)nc45)c(C(F)(F)F)cc23)C[C@H](C)N1	4.52 to 5.00
CN1CCC[C@H]1COc1nc(N2CCNCC2)c2cc(C3(C#N)CCC3)c(-c3ccc(F)c4sc(N)nc34)c(F)c2n1	4.52 to 5.00
C[C@@H]1CN(c2nc(OC[C@@]34CCCN3C[C@H](F)C4)nc3c(F)c(-c4ccc(F)c5sc(N)nc45)c(OC(F)F)cc23)[C@@H](C)CN1	5.00 to 6.00
Nc1nc2c(-c3c(C(F)(F)F)cc4c(NC5CNC5)nc(OCC56CCCN5CCC6)nc4c3F)ccc(F)c2s1	6.00 to 7.00

# context switch: different compound, same pIC50
Requested read-out pIC50, target or system Avi-KRAS G12D (1-169) GppNHp/RAF1 RBD-3×FLAG (52-151) (Homo sapiens, UniProt P01116, G12D), entry `CN1CCC[C@H]1COc1nc(N2CCN(C(=O)CN)CC2)c2cc(Cl)c(-c3ccc(F)c4sc(N)nc34)c(F)c2n1`
4.52 to 5.00

* * *

target: GppNHp KRAS G12D (Homo sapiens, UniProt P01116, G12D); test: SPR binding affinity, GppNHp KRAS G12D; settings: GppNHp-bound KRAS G12D
Sequence (P01116 1-188 isoform P01116-2 G12D): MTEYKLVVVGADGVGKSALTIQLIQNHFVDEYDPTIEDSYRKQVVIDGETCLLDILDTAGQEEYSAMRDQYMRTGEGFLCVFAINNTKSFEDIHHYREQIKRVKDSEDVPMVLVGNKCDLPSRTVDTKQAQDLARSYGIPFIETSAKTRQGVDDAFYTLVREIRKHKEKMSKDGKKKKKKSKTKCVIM
pKd: −log10 of the molar value.
measured property: pKd

Below are worked cases with known answers.
compound	obs value
N#Cc1c(N)sc2c(F)ccc(-c3c(Cl)cc4c(N5C[C@H]6CC[C@@H](C5)N6)nc(OC[C@@]56CCCN5C[C@H](F)C6)nc4c3F)c12	≥ 7.00
Nc1nc2c(-c3c(Cl)cc4c(NC5CNC5)nc(OCC56CCCN5CCC6)nc4c3F)ccc(F)c2s1	6.00 to 7.00
NCCNc1ncnc2c(F)c(-c3ccc(F)c4sc(N)nc34)c(Cl)cc12	4.52 to 5.00
CN(C)C1CN(c2nc(N3CCNCC3)c3cc(Cl)c(-c4ccc(F)c5sc(N)nc45)c(F)c3n2)C1	4.52 to 5.00
CN1CCC[C@H]1COc1nc(NCCN)c2cc(Cl)c(-c3cccc4cc(O)ccc34)c(F)c2n1	4.52 to 5.00
N#CC[C@H]1CN(c2ncnc3c(F)c(-c4ccc(F)c5sc(N)nc45)c(Cl)cc23)CCN1C(=O)CN	4.52 to 5.00
Nc1nc2c(-c3c(C(F)(F)F)cc4c(N5CC6CC5CN6)nc(OC[C@@]56CCCN5C[C@H](F)C6)nc4c3F)ccc(F)c2s1 (stereo partly shown)	≥ 7.00
CN(c1nc(OC[C@@]23CCCN2C[C@H](F)C3)nc2c(F)c(-c3ccc(F)c4sc(N)nc34)c(C(F)(F)F)cc12)[C@H]1CNC[C@H]1F	6.00 to 7.00
CO[C@@H]1CN(C)C[C@H]1Oc1nc(N2CCNCC2)c2cc(Cl)c(-c3ccc(F)c4sc(N)nc34)c(F)c2n1	4.52 to 5.00
N#Cc1c(N)sc2c(F)ccc(-c3c(C(F)(F)F)cc4c(N5C[C@H]6CC[C@@H](C5)N6)nc(OC[C@@]56CCCN5C[C@H](F)C6)nc4c3F)c12	≥ 7.00

Reported pKd for GppNHp KRAS G12D (Homo sapiens, UniProt P01116, G12D), given `Nc1nc2c(-c3c(C(F)(F)F)cc4c(NC5CNC5)nc(OCC56CCCN5CCC6)nc4c3F)ccc(F)c2s1` ?
≥ 7.00

Follow-up item: `NCCNc1nc(OCC23CCCN2CCC3)nc2c(F)c(-c3ccc(F)c4sc(N)nc34)c(Cl)cc12`
6.00 to 7.00

And for CN(c1nc(OC[C@@]23CCCN2C[C@H](F)C3)nc2c(F)c(-c3ccc(F)c4sc(N)nc34)c(C(F)(F)F)cc12)C1C2C[C@H]1CN2 (stereo partly shown) ?
6.00 to 7.00

Thanks! And `CN(C)C1CN(c2nc(NCCN)c3cc(Cl)c(-c4ccc(F)c5sc(N)nc45)c(F)c3n2)C1` ?
4.52 to 5.00

Now this one: `CN1CCC[C@H]1COc1nc(N2CCN(C(=O)CN)[C@@H](CC#N)C2)c2cc(Cl)c(-c3ccc(F)c4sc(N)nc34)c(F)c2n1`
5.00 to 6.00

Again, but for Nc1nc2c(-c3c(C(F)(F)F)cc4c(N[C@@H]5CCNC5)nc(OC[C@@]56CCCN5C[C@H](F)C6)nc4c3F)ccc(F)c2s1 (atropisomer, axis not shown) [Compound 248]
≥ 7.00

Let us now turn to `Nc1nc2c(-c3c(Cl)cc4c(N5CCNCC5)ncnc4c3F)ccc(F)c2s1`
4.52 to 5.00

Repeat with `CN1C2CCC1CN(c1nc(OC[C@@]34CCCN3C[C@H](F)C4)nc3c(F)c(-c4ccc(F)c5sc(N)nc45)c(C(F)(F)F)cc13)C2`
5.00 to 6.00

Same read-out for Nc1nc2c(-c3c(C(F)(F)F)cc4c(N[C@@H]5CCNC5)nc(OC[C@@]56CCCN5C[C@H](F)C6)nc4c3F)ccc(F)c2s1 (atropisomer, axis not shown) [Compound 249] ?
5.00 to 6.00

Let us now turn to `CO[C@@H]1C[C@@H](COc2nc(NCCN)c3cc(Cl)c(-c4ccc(F)c5sc(N)nc45)c(F)c3n2)N(C)C1`
5.00 to 6.00

Same question, `CN1CCC[C@H]1COc1nc(N2CCN(C(=O)CN)[C@@H](CC#N)C2)c2cc(Cl)c(-c3ccc(F)c4sc(N)nc34)c(O)c2n1` this time
5.00 to 6.00

And what about the compound `CN1CCC[C@H]1COc1nc(N2CCN[C@@H](CC#N)C2)c2cc(Cl)c(-c3ccc(F)c4sc(N)nc34)c(F)c2n1` ?
4.52 to 5.00
